test target: FABP3 (Homo sapiens, UniProt P05413)
Construct: purchased Sigma Aldrich
Sequence (P05413 whole entry): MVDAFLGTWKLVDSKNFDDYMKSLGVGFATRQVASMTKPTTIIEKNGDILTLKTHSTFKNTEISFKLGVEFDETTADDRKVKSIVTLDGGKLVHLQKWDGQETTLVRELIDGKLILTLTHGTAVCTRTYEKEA
test name: CW EPR spectra and spectral simulations of spin-probed fatty acids with FABP3
Assay type: binding
test settings: 37 °C, 20 μM FABP3, 20 μM spin probe; read-out: KD,T,20μM (calculated, totally bound)
property measured: Kd (µM)
I only need the number, in µM, no unit after it.

[[record]]
molecule = "CCCCCCCCCCCCCC1(CCCC(=O)O)OCC(C)(C)N1[O] (centres unmarked)"
observed = 0.82


Ask: Please indicate Kd recorded for CCC1(CCCCCCCCCCCCCCC(=O)O)OCC(C)(C)N1[O] (centres unmarked)
Result: 1.08
